Recorded TGI for the following compounds
Test system: MCF7 breast
assay_notes: NCI tumour cell line growth inhibition, 48 h

- compound: "c1csc(C(NC2=NCCO2)C2CC2)c1 (stereo not given)"
  experimental_endpoint: "TGI"
  recorded_measurement: "> 100 µM"
- compound: "CC(=O)c1sc2c(c1O)c(=O)n(-c1ccccc1)c(=S)n2-c1ccccc1"
  experimental_endpoint: "TGI"
  recorded_measurement: "> 100 µM"
- compound: "CN(C)CCS(=O)(=O)Nc1cc(-c2ccc3ncnc(Nc4ccc(F)c(Cl)c4)c3c2)cnc1Cl"
  experimental_endpoint: "TGI"
  recorded_measurement: "> 100 µM"
- compound: "Nc1c(C(=O)Nc2ccccn2)sc2nc3c(cc12)CCCCCC3"
  experimental_endpoint: "TGI"
  recorded_measurement: "10.2 µM"
- compound: "CCOC(=O)c1cc2cc(OCc3ccccc3)ccc2[nH]1"
  experimental_endpoint: "TGI"
  recorded_measurement: "> 100 µM"

Exercise: TGI lookup needed for O=C(c1ccccc1)c1ccc2nc3n(c2c1)C(c1c(Cl)cccc1Cl)SC3 (stereo not given) , thanks.
Key: > 100 µM

Exercise: TGI lookup needed for CC1=CC(=O)c2c(O)c3c(c(O)c2C1=O)C1C(O)C(C3=O)C23C(=O)c4c(O)c(C)cc(O)c4C(O)=C2C(=O)CC(O)C13 (stereo not given) , thanks.
Key: 14.6 µM

Exercise: TGI lookup needed for CCOP(=O)(/C=C/n1cnc2c(=O)n(C(C)=O)c(N)nc21)OCC , thanks.
Key: > 100 µM

Exercise: TGI lookup needed for Cc1cn2c(/C=C3/C(=O)Nc4ccc(C(=O)O)cc43)c(C)nc2s1 , thanks.
Key: > 100 µM

Exercise: TGI lookup needed for Clc1cccc2[nH]ncc12 , thanks.
Key: > 100 µM

* * *

System: OVCAR-8 ovarian
assay_notes: NCI tumour cell line growth inhibition, 48 h
Recorded TGI for the following compounds
Field: numeric (µM). Do not append units.

Solved cases below.
- compound: "CC1(CCCCO)C=CC(S(=O)(=O)c2ccccc2)CC1 (stereo unspecified)"
  unit: "µM"
  TGI: 23.2
- compound: "O=C1c2ccoc2C(=O)c2oc(=O)ccc21"
  unit: "µM"
  TGI: 14.9
- compound: "Cc1cc(C)nc(NC(=S)Nc2ccc(Cl)cc2)c1"
  unit: "µM"
  TGI: 71.5

Moving on to another compound below.
Exercise: TGI lookup needed for COc1ccc2c(C(=O)c3c(C)n(CCN4CCOCC4)c4ccccc34)cccc2c1 , thanks.
Key: 59.4

* * *

System: UACC-62 melanoma
assay_notes: NCI tumour cell line growth inhibition, 48 h; in the data active = GI50 below about 0.43 µM; inactive = the rest
Tick one outcome: yes (1) (active), no (0) (inactive)

See these solved cases before continuing.
- molecule: "Cc1cn2c(/C=C3/C(=O)Nc4ccc(C(=O)O)cc43)c(C)nc2s1"
  measured_target: "UACC-62 melanoma"
  class_name: "no (0)"
- molecule: "CCN(CC)C(=S)SSCCO"
  measured_target: "UACC-62 melanoma"
  class_name: "no (0)"
- molecule: "CCN(CC)CCS(=O)(=O)CCNc1ccnc2cc(Cl)ccc12"
  measured_target: "UACC-62 melanoma"
  class_name: "no (0)"

Exercise: Please share the test call associated with CC1(C)N=C(N)N=C(N)N1c1ccc(OCCCCNC(=O)Nc2cccc(S(=O)(=O)F)c2)c(Cl)c1 .
Key: no (0)

Exercise: Please share the test call associated with Cc1ccc(NC2=CC(=O)C(=O)c3ccccc32)c(C)c1 .
Key: no (0)

Exercise: Please share the test call associated with CCN(CC)CCCNc1c2ccc(Cl)cc2nc2ccc(OC)cc12 .
Key: no (0)

Exercise: Please share the test call associated with O=C(Nc1cccc(-n2cc(-c3ccncc3)c(-c3ccc(O)c(Cl)c3)n2)c1)Nc1ccc(Cl)c(Cl)c1 .
Key: no (0)

Exercise: Please share the test call associated with O=C1c2ccccc2-c2c1c1ccc([N+](=O)[O-])cc1c(=O)n2CCCCl .
Key: no (0)

Exercise: Please share the test call associated with Cc1ccc(NC(=O)c2ccc(NC3=C(Cl)C(=O)N(Cc4ccccc4)C3=O)cc2)cc1Cl .
Key: no (0)

* * *

Test system: NCI/ADR-RES ovarian
assay_notes: NCI tumour cell line growth inhibition, 48 h
Recorded GI50 for the following molecules

Solved cases below.
- chem_smiles: "Cc1nn2c(-c3nc4cc(Cl)c(Cl)cc4[nH]3)c(-c3ccc(F)cc3)nc2s1"
  GI50: "2.7 µM"
- chem_smiles: "CCN(CCNc1ccc(C)c2sc3cc(Cl)ccc3c(=O)c12)CC(C)(C)O"
  GI50: "6.37 µM"

Exercise: GI50 lookup needed for Cc1ccccc1CNc1c2ccccc2nc2ccccc12 , thanks.
Key: 2.07 µM

* * *

Test system: HOP-92 NSCLC
assay_notes: NCI tumour cell line growth inhibition, 48 h
Where a SMILES comes first, the peptide text is derived from it. The star is where a group is joined. Boc = CC(C)(C)OC(=O)*; tBu = CC(C)(C)*
experimental_endpoint: TGI

- molecule: "O=C1C2C(C(=O)N1CC[Se][Se]CCN1C(=O)C3C(C1=O)[C@H]1C=C[C@@H]3C1)[C@H]1C=C[C@@H]2C1 (stereo partly drawn)"
  TGI: "2.29 µM"
- molecule: "Cc1cn2c(/C=C3/C(=O)Nc4ccc(C(=O)O)cc43)c(C)nc2s1"
  TGI: "> 100 µM"
- molecule: "COC(=O)[C@]1(C)[C@H]2C[C@H]3O[C@H]4[C@H](O)[C@@H](O)OC(CC(O)C(C5=CC(=O)OC5)C(C5=CC(=O)OC5)C(O)CC56CCCCC7[C@@H](C)[C@H](C[C@H]8[C@](C)(C(=O)OC)[C@H](O)CC[C@]78C)O[C@H]([C@@H](O)[C@H](O)O5)[C@H]6O)(CCCCC([C@@H]3C)[C@]2(C)CC[C@@H]1O)[C@H]4O (stereo partly drawn)"
  TGI: "3.92 µM"
- molecule: "Cc1n(Cc2ccc3ccccc3n2)cc[n+]1Cc1ccc2ccccc2c1"
  TGI: "3.06 µM"
- molecule: "CCOc1cc2c(cc1O)CC[C@@H]1[C@@H]2CC[C@]2(C)[C@@H](O)CC[C@@H]12"
  TGI: "29.6 µM"
- molecule: "COc1cc(OC)c(/C=C/C(=O)c2c(N)cc(OC)cc2OC)c(OC)c1"
  TGI: "> 94.8 µM"
- molecule: "O=c1[nH]nc(Cc2ccccc2)n1C1CC1"
  TGI: "> 100 µM"
- molecule: "CC(C)(CC1(C)NC(=O)NC1=O)OCc1ccccc1 (stereo not drawn)"
  TGI: "> 100 µM"

Exercise: // map COC1(c2ccccc2)NC(=S)NN=C1c1ccccc1 (stereo not drawn) to recorded TGI (system: HOP-92 NSCLC)
Key: > 100 µM

Exercise: // map CC1=C(C(=O)CC(=O)C(=O)Nc2ccccc2C)Sc2ccccc2N1 to recorded TGI (system: HOP-92 NSCLC)
Key: > 100 µM

Exercise: // map O=C(Nc1ccc(Cl)c(C(F)(F)F)c1)C(=O)c1c(O)c2ccccc2oc1=O to recorded TGI (system: HOP-92 NSCLC)
Key: > 100 µM

Exercise: // map O=C1c2ccccc2-c2c1c1ccc([N+](=O)[O-])cc1c(=O)n2CCCCl to recorded TGI (system: HOP-92 NSCLC)
Key: > 100 µM

Exercise: // map CC(OC(C)(C)C)C(NC(=O)C(N)CCCCNC(=O)OC(C)(C)C)C(=O)NC(Cc1ccccc1)C(=O)O (stereo not drawn) (H-Lys(Boc)-Thr(tBu)-Phe-OH; configuration not given here) to recorded TGI (system: HOP-92 NSCLC)
Key: > 100 µM

Exercise: // map CC1=NN(c2nc(N)nc(/C=C\c3ccccc3)n2)C(C)(C)C1 to recorded TGI (system: HOP-92 NSCLC)
Key: 39.5 µM

Exercise: // map CC(=O)Nc1sccc1S(=O)(=O)c1ccc(Cl)cc1 to recorded TGI (system: HOP-92 NSCLC)
Key: > 100 µM

Exercise: // map CCOC(=O)COc1cccc2occc(=O)c12 to recorded TGI (system: HOP-92 NSCLC)
Key: > 100 µM

Exercise: // map CCCC(=O)OC1C(C2COC(C)(C)O2)OC2OC(C)(C)OC21 (stereo not drawn) to recorded TGI (system: HOP-92 NSCLC)
Key: > 100 µM

Exercise: // map CC(C)=NNc1ncnc2nc[nH]c12 to recorded TGI (system: HOP-92 NSCLC)
Key: > 93.8 µM

* * *

Test system: U251 CNS
Tick one outcome: label 1 = active, label 0 = inactive

See these solved cases before continuing.
- chem_smiles: "Oc1ccc(-c2[nH]c3ccccc3c2-c2nc3ccccc3o2)cc1"
  class_name: "label 0"
- chem_smiles: "COc1cc2c3c(n(CCCN4CCSCC4)c(=O)c2cc1OC)-c1cc2c(cc1C3=O)OCO2"
  class_name: "label 0"
- chem_smiles: "CC(C)C/C(=N\\NC(=O)c1ccncc1)c1cc(Cl)ccc1O"
  class_name: "label 1"

Exercise: Please share the test call associated with CC1=NN(c2nc(N)nc(/C=C\c3ccccc3)n2)C(C)(C)C1 .
Key: label 0
